target: Avi-KRAS G12V (1-169) GppNHp/RAF1 RBD-3xFLAG (52-151) (Homo sapiens, UniProt P01116, G12V); construct: Avi-KRAS G12V (1-169); assay: Raf1-KRAS G12V-GppNHP disruption HTRF assay (Biological Example 1); type: binding; conditions: KRAS G12V, GppNHp-loaded; Table 11
Sequence (P01116 1-169 isoform P01116-2 G12V): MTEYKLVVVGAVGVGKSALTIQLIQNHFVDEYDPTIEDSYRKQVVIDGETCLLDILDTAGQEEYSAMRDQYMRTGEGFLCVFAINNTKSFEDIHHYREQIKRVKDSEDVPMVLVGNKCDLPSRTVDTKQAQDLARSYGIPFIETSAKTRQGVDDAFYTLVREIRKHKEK
pIC50: −log10 of the molar value.
Reported pIC50 by item:

[[record]]
compound = "CC1(CO)CCN(c2nc(OCC34CCCN3CC(F)C4)nc3c(F)c(-c4ccc(F)c5sc(N)c(C#N)c45)c(C(F)(F)F)cc23)CC1 (stereo not shown) [Compound 48]"
measured_result = "6.00 to 7.00"

[[record]]
compound = "C[C@@H]1COC[C@H](C)N1c1nc(OC[C@@]23CCCN2C[C@H](F)C3)nc2c(F)c(-c3ccc(F)c4sc(N)c(C#N)c34)c(C(F)(F)F)cc12 [Compound 201]"
measured_result = "6.00 to 7.00"

[[record]]
compound = "CN(c1nc(OC[C@@]23CCCN2C[C@H](F)C3)nc2c(F)c(-c3ccc(F)c4sc(N)c(C#N)c34)c(C(F)(F)F)cc12)[C@H]1CCS(=O)(=O)C1 (single isomer, unassigned) [Compound 221]"
measured_result = "6.00 to 7.00"


Prompt: Name the recorded pIC50 of CC(=O)N1CC[C@H](N(C)c2nc(OC[C@@]34CCCN3C[C@H](F)C4)nc3c(F)c(-c4ccc(F)c5sc(N)c(C#N)c45)c(C(F)(F)F)cc23)[C@@H]1C (single isomer, unassigned) [Compound 194] , assay system Avi-KRAS G12V (1-169) GppNHp/RAF1 RBD-3xFLAG (52-151) (Homo sapiens, UniProt P01116, G12V).
Response: < 5.00

Prompt: Name the recorded pIC50 of CN(c1nc(OC[C@@]23CCCN2C[C@H](F)C3)nc2c(F)c(-c3ccc(F)c4sc(N)c(C#N)c34)c(C(F)(F)F)cc12)[C@H]1C[C@@](C)(O)C1 [Compound 31] , assay system Avi-KRAS G12V (1-169) GppNHp/RAF1 RBD-3xFLAG (52-151) (Homo sapiens, UniProt P01116, G12V).
Response: 5.00 to 6.00

Prompt: Name the recorded pIC50 of N#Cc1c(N)sc2c(F)ccc(-c3c(C(F)(F)F)cc4c(N5CCCC6(CC(O)C6)C5)nc(OC[C@@]56CCCN5C[C@H](F)C6)nc4c3F)c12 (stereo partly shown) [Compound 231] , assay system Avi-KRAS G12V (1-169) GppNHp/RAF1 RBD-3xFLAG (52-151) (Homo sapiens, UniProt P01116, G12V).
Response: < 5.00

Prompt: Name the recorded pIC50 of CN(c1nc(OCC23CCCN2CCC3)nc2c(F)c(-c3ccc(F)c4sc(N)nc34)c(C(F)(F)F)cc12)[C@H]1C[C@@H](O)C1 (atropisomer, axis not shown) [Compound 2] , assay system Avi-KRAS G12V (1-169) GppNHp/RAF1 RBD-3xFLAG (52-151) (Homo sapiens, UniProt P01116, G12V).
Response: 5.00 to 6.00

Prompt: Name the recorded pIC50 of N#Cc1c(N)sc2c(F)ccc(-c3c(C(F)(F)F)cc4cnc(OC[C@@]56CCCN5C[C@H](F)C6)nc4c3F)c12 [Compound 213] , assay system Avi-KRAS G12V (1-169) GppNHp/RAF1 RBD-3xFLAG (52-151) (Homo sapiens, UniProt P01116, G12V).
Response: 6.00 to 7.00

Prompt: Name the recorded pIC50 of CO[C@@H]1C[C@@H](COc2nc(N(C)[C@H]3C[C@@H](O)C3)c3cc(C(F)(F)F)c(-c4ccc(F)c5sc(N)nc45)c(F)c3n2)N(C)C1 (atropisomer, axis not shown) [Compound 17] , assay system Avi-KRAS G12V (1-169) GppNHp/RAF1 RBD-3xFLAG (52-151) (Homo sapiens, UniProt P01116, G12V).
Response: < 5.00

Prompt: Name the recorded pIC50 of CO[C@H]1CN2CCC[C@@]2(COc2nc(N(C)[C@H]3C[C@@H](O)C3)c3cc(C(F)(F)F)c(-c4ccc(F)c5sc(N)nc45)c(F)c3n2)C1 (atropisomer, axis not shown) [Compound 13] , assay system Avi-KRAS G12V (1-169) GppNHp/RAF1 RBD-3xFLAG (52-151) (Homo sapiens, UniProt P01116, G12V).
Response: 5.00 to 6.00
